System: Bacillus subtilis DB104 (SP-AmyQ fusion secretion)
Assay: AmyQ secretion efficiency, weighted average sort bin (1 = best secretion, 10 = worst) (bin number (weighted average, 1-10)); higher = lower secretion efficiency
Binary classification by AmyQ secretion efficiency, with 3 as an inclusive lower bound for true; all other cases are false.

MKKLLAAGIIGLLTVSIASPSFVAEK
true
MKTKTFLFIFSAILTLSIFAPNETFAQTA
false
MLKRTSFVSSLKKSSAVLLSILLPSGQAHAQSA
true

Request: Determine whether measured AmyQ secretion efficiency meets or exceeds 3 for `MMIKQCVICLSLLVFGTTAVHAEET`
Response: false

Request: Identify whether the reported AmyQ secretion efficiency of the following sequence is 3 or greater: `MRMLWRSLALCGLALTLAPCWQAAEP`
Response: true

Request: Exam item: decide whether the reported AmyQ secretion efficiency for `MRKYTVIASILLSFLSVLSGGHHEWKAFPV` is at least 3.
Response: true

Request: Entry `MKRLRRKRKKGIMLLTFAPSAFAKQD` : is its AmyQ secretion efficiency no less than 3?
Response: true

Request: Could you please find out whether `MKKRRYFIVFICFFVLFSVHPIAAAAADS` has AmyQ secretion efficiency that meets 3 or exceeds it?
Response: true

Request: Check this sequence for AmyQ secretion efficiency at or above 3: `MLKKKWMVGLLAGCLAAGGFSYNAFRTEN`
Response: true

Request: Kindly determine if AmyQ secretion efficiency recorded for `MIAYFGKCLLLVTIMFLGVLGMQQANHG` is above or exactly 3.
Response: true

Request: Determine whether measured AmyQ secretion efficiency meets or exceeds 3 for `MLTKRLLTIYIMLLGLIAWFPGAAQCEEK`
Response: false

Request: I'd appreciate it if you could say whether `MRFTKVRRRRKKLGLAAVFPLTAQAEKA` has AmyQ secretion efficiency at least equal to 3.
Response: true

Request: Reported AmyQ secretion efficiency reaches at least 3 for `MKSCKQLIVCSLAAILLLPPEVSFAADS` ?
Response: false

Request: Item `MLTKRLLTIYIMLLGLITWFPGAAQAEEK` with AmyQ secretion efficiency of 3 or above?
Response: false

Request: Could you verify whether the entry `MLCVMMLLFSAIASFPVSAQHKDQ` shows AmyQ secretion efficiency of no less than 3?
Response: true

Request: Could you tell me if the measured AmyQ secretion efficiency of `MLKRTSFVSSLFISSAVLLSILTPDGQAHAQSA` reaches 3 or more?
Response: false

Request: Hi, just wondering whether `MHLIRAAGAVCLAVVLIAGCRFNEDQHQAEGDED` shows AmyQ secretion efficiency of 3 or higher.
Response: true
